Test system: MS2 coat protein
Assay: apparent KD of MS2 coat protein; designed switch direction (-1 OFF switch, 1 ON switch): -1; higher = weaker reporter binding
Settings: input ligand: FMN 200 uM
# key: entry, value: apparent KD of MS2 coat protein
Your answer should be a plain number; it is taken to be in nM.

Some solved cases for reference:
primary_sequence	unit_annotation	apparent KD of MS2 coat protein
CUAGGGCACAAUUAAACACCCUAACAUGAGGAUCACCCAUGUCAGGAUAUGUAGGCAAAGACCCUACAGAAGGGACAUGUCCUA [Laus] (Eterna round: R96, puzzle: Exclusion NG 3)	nM	21.1
CAAGCUUUGCGAGGAUAUGAUGGCCUAUAUGCCUCAGAAGGCGCAGAAACUUGAGGAUCACCCAAGUGAUGCAAAUACGAAAAU [Mutated MS2 EX1.9] (Eterna round: R96, puzzle: Exclusion NG 1)	nM	78.1
UUAAUUAAUUAUAUAAGAUCACAUGAGGAUCACCCAUGUAUAUAGGAUAUCAGCUCGAUUAGAGCUGAGAAGGAUAUACAAUAU [ExNG3/3-B1] (Eterna round: R96, puzzle: Exclusion NG 3)	nM	172
GCGGCGUAUGUAGGAUAUCGGUCAGUUUCUGAUCGAGAAGGACAUGAGGAUCACCCAUGUAAAUUACCGACUUUGUCGGGCCGC [JL ENG1 3.66] (Eterna round: R96, puzzle: Exclusion NG 1)	nM	20.4
GUAUGUGGUAAGGAUAUGCAUAAAACCCGCUCCGCAGAAGGUACCACAUGAGGAUCACCCAUGUGAUACCAAUA [EX6 A.16] (Eterna round: R97, puzzle: Exclusion 6)	nM	16.1
UAGGAUACCGUCAGGAUAUAGAGUUCCCACAGACUCUAGAAGGGACAUGAGGAUCACCCAUGUCGUGCAACGUU [Eternabot (L1) Solution 54] (Eterna round: R97, puzzle: Brourd's mod of Exclusion 4)	nM	20.2
GGUGGGCUAGGAUAUGCUUUGGGAGGGCAUUCCUUCGAUAAACUUGAGGAUCACCCAAGUAGAAGGAGCUUGCC [salish99_ex2_r4_022] (Eterna round: R97, puzzle: Exclusion 2)	nM	33.9
ACGAAGCUUUUUGCUCGUCACAUGAGGAUCACCCAUGUGGGCCCGGGCGCCCGGGCCGACAUCCCACUAGGACAUGU [#2] (Eterna round: R97, puzzle: Sensor, turn-off variant 1)	nM	104

Please look at the following sequence next.
Problem: Indicate its recorded apparent KD of MS2 coat protein; the sequence in question is AAUAAAGGCCGAGGAUAUCGGAAAGGAAGUGUACGAGAAGGCGGCAAAAGAACAUGAGGAUCACCCAUGUGGGCCGAUCUUCCG [PowerStrip EXNG 1.2] (Eterna round: R96, puzzle: Exclusion NG 1)
Result: 26.4

====

System: MS2 coat protein
Assay: apparent KD of MS2 coat protein; higher = weaker reporter binding
Conditions: Eterna round: R107; input ligand: arginine 13.2 mM
metric_name: apparent KD of MS2 coat protein (µM)
Your answer should be a plain number; it is taken to be in µM.

Some solved cases for reference:
primary_sequence	val
UUGAUUACCCAAGCGUGAUGGUCCUAGGAACGAGGACCGGUACGGCCGCCACUCGCAAGCAAACAUGAGGAUCACCCAUGUUUAU [theeternabot_exclusion_MS2_Trp_A_19]	0.0112
ACAUGAGGAUCACCCAUGUAGUAGUCAGAAGGAGCGUGGAAUAACACAGGUAGGUCGCUGAUGUUUGGUUAAAUGUAAUCGUGUA [#30 Same State - Arginine A]	0.0196
ACAUGAGGAUCACCCAUGUAAUGGCACGAUACCAGCUGAUCCCGUGGCCCUUGGCAGCGUCCGGUGUGGUCCGCCGGGUUGGAGC [DDDMULLIN]	0.0287
GUACACAUGAGGAUCACCCAUGUACUGGUACGAGGACCGGUACGGCCGCCACUCGCCGAGAUUCAUAACACAUCAGAAAGCUCAC [theeternabot_sameState_MS2_Trp_A_45]	0.0135
AAUCCAAGAAAUGAUACCAGUCCCACUCAGGACAUGAGGAUCACCCAUGUAAUACAGGGAGACCCUUGGCAGCAUCGAAUAAACA [theeternabot_sameState_MS2_Theo_B_33]	0.178
AGAAUAUAGUCGGCCGCCACUCUUCAUACAUGAGGAUCACCCAUGUUUAAUUCUUGGAUAUUCUUGAGGACCGGGACAUAGGCAU [JR_SSTryptoB_Sub019]	0.018
CGUACAUGAGGAUCACCCAUGUUACAUGAUACCAGACAUGAAAAUGUCCCUUGGCAGCAUGGCGCUGAUAGGGCGGGAAACCCGA [Zabovresky]	0.0166
CAUGAAGUAACUGAUACCAGUGUACACAUGAGGAUCACCCAUGUGUUGGGUUUUGUUGUACACCCUUGGCAGCAGAAUCUUUAUG [AstrosExyTheB#8]	0.0424
UGUAUGGACUGAAGGAGCGGAAGAUACCAUGAGGAUCACCCAUGGAAUAAGGCGAAAGCCUUCCAGGUAGGUCGCAGUCCAUACU	0.0161
CCGGGCCCGGGAGACCGGGCCCGGACUGAAGGAGCGGGAAUAAACCCAGGUAGGUCGCAGAGAUCCACAUGAGGAUCACCCAUGU [!0.U]	0.133

Problem: Indicate its recorded apparent KD of MS2 coat protein; the sequence in question is UGGCAAGAGGGAAGGAGCGUCAGCAGAGUAACAUGAGGAUCACCCAUGUAGCACGUGGUGUGACAGGUAGGUCGCCCUCUGCCGU [SS-ArgB13]
Result: 0.0285

Problem: Indicate its recorded apparent KD of MS2 coat protein; the sequence in question is ACAUGAGGAUCACCCAUGUAAUAAUCAGAAGGAGCGUGGAAUAACACAGGUAGGUCGCUGAUGUUUGGUUAAAAUUAUUCGUGAA [JR_ExcArginiA_Sub001]
Result: 0.0122

====

Tested on: K4 kissing-loop RNA reporter;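 further: bound reporter read as fluorescence of individual clusters on recovered sequencing chips by microscopy, with normalized cluster intensities fitted with a binding model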
Assay: apparent KD of K4 kissing-loop reporter; higher = weaker reporter binding
Conditions: Eterna round: R107; input ligand: arginine 13.2 mM
# key: entry, value: apparent KD of K4 kissing-loop reporter
Just the number plus its unit, please.

Some solved cases for reference:
primary_sequence	val
GGGAGAAGUGCGGCCGCCACUGAGAAAGAAGAAGAAUAUAGUGAUGUUAUAUAGGAAAGGAAGAACAGGACCGGGCAUAAGAGGG [SSTryptB.A]	148 nM
GGCGGCUGCGCGCAAGCGCAGCCGGCCGAUACCAGCGCGACGGCGCGCCCUUGGCAGCGGCGCCGAGUGAUGUUCGGCCUGCCGU [#2 Same State - Theophylline A Attempt #22 (HarryS)]	98.1 nM
GGUCGAGUGAUGUUCGAUGUAGUGCAUUCAGAGGAUAUAGGAUUGGCUAGAAGGCUGAAACCUUCUUCGAGUGAUGUUCGAGGAU [Same State FMN A GF5]	83.8 nM

Problem: Indicate its recorded apparent KD of K4 kissing-loop reporter; the sequence in question is GGAUAGGAUAGAGGAUAUGGCUUAUGCAGAAAUAACUUAUUGUGUAAAUCCAUAGGGAGUGAUGUUCCAGAAGGCUGUCCUAUCG [MatMod 16 - Jieux - Exclusion - FMN B]
Result: 218 nM

Problem: Indicate its recorded apparent KD of K4 kissing-loop reporter; the sequence in question is GUCGGCCGCGCGCAAGCGCGGCCGGCCGAUACCAGCGCGCCGGUGCGCCCUUGGCAGCGGCACCGAGUGAUGUUCGGUCAGACGA [#2 Same State - Theophylline A Attempt #6 (HarryS)]
Result: 161 nM

Problem: Indicate its recorded apparent KD of K4 kissing-loop reporter; the sequence in question is ACGUAGUUCUAGGAUACCAGCCAAGGUCGCCAGGACAAAAGUCCUGGCGCCAGUGAUGUUGGCCCUUGGCAGCCUAGAACUACGA [Omei KL Theo B Exc B v6]
Result: 176 nM

Problem: Indicate its recorded apparent KD of K4 kissing-loop reporter; the sequence in question is AAAGAUGCGUCGGCCGCCACUGUUGCCAGUGAUGUUGGCAUGUAGAUGCAGUGAUGUUGCGUUUUCAGGACCGGGACGUAAGAUG [5th]
Result: 253 nM

Problem: Indicate its recorded apparent KD of K4 kissing-loop reporter; the sequence in question is GGAUAGGACAGAGGAUAUGGUAGCUAGGCAAGACAAAAGUCUUGUCUAGCAAUGAGGAGUGAUGUUCCAGAAGGCUGUCCUAUCG [FmnBX 4 - #SwitchBubble #StaticStem]
Result: 350 nM

====

Test system: MS2 coat protein
Assay: apparent KD of MS2 coat protein; designed switch direction (-1 OFF switch, 1 ON switch): -1; higher = weaker reporter binding
Details: input ligand: FMN 200 uM
Given measured apparent KD of MS2 coat protein, output 1 (yes) if it is greater than or equal to 200 nM and 0 (no) if not.

primary_sequence	group_label
CCAAUCAGAGGAUAUGCGAAUAAAUAAAACUUUUUUUUUUAACAUGAGGAUCACCCAUGUAGAAGGCUGUAACC [Ex2 #43] (Eterna round: R97, puzzle: Exclusion 2)	0 (no)

Problem: Could you please find out whether CUCGCUGUGGUUAGGAUAUGUGGGUUAGCAGGCGCAUAGAAGGAACAUGAGGAUCACCCAUGUGGGUUGGUGCG [Eternabot (L2) Solution 88] (Eterna round: R97, puzzle: Brourd's mod of Exclusion 4) has apparent KD of MS2 coat protein that meets 200 nM or exceeds it?
Result: 0 (no)

Problem: Could you please find out whether CGUCUGUAAGGAUAUGGUUGCAUCAACAUGAGGAUCACCCAUGUAACAUGGGACUAGUGAUUAGAAGGUACGAACG [EX5 #58] (Eterna round: R97, puzzle: Exclusion 5) has apparent KD of MS2 coat protein that meets 200 nM or exceeds it?
Result: 0 (no)

Problem: Could you please find out whether AGCUGUGGCCGAGGAUAUCUGAUAGUCCCAACCGAAAUAUAAUCGGACAUGAGGAUCACCCAUGUAGAGAAGGCGGUCUCAGCA [Eli eng2 - 070] (Eterna round: R96, puzzle: Exclusion NG 2) has apparent KD of MS2 coat protein that meets 200 nM or exceeds it?
Result: 1 (yes)

Problem: Could you please find out whether AAUUUCAUUGUGAGGAUAUGCCCAAAUAAAAGCGGGCAGAAGGCACAUGAGGAUCACCCAUGUCCUGCGGUUAU [salish99_bmx4_r4_152] (Eterna round: R97, puzzle: Brourd's mod of Exclusion 4) has apparent KD of MS2 coat protein that meets 200 nM or exceeds it?
Result: 1 (yes)
